molecular target: Neu5Ac(a2-3)Gal(b1-4)GlcNAc(b1-3)Gal(b1-4)GlcNAc(b1-3)[Neu5Ac(a2-3)Gal(b1-4)GlcNAc(b1-3)Gal(b1-4)GlcNAc(b1-6)]GalNAc; assay: glycan array binding signal (z-score within array); higher = stronger binding; details: glycan notation: IUPAC condensed, linker removed
Many of the other results were omitted from the sample, so the strongest signals are more common in it than they were.
outcome_measure: glycan array binding signal (z-score)

Ask: Record request: glycan array binding signal (z-score) value, item ArathEULS3 TAP (Arabidopsis thaliana) (protein) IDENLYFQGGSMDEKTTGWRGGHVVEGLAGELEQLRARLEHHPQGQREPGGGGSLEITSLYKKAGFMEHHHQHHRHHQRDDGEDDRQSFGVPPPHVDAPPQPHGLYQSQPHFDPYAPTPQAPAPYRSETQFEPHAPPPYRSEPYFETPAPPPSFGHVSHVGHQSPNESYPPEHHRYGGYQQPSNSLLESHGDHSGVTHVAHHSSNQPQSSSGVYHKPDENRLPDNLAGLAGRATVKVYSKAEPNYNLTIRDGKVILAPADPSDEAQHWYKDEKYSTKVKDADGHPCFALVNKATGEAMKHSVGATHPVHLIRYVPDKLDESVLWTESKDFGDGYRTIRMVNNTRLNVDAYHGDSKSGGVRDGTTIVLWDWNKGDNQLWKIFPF
Reply: 0.575
